System: Moraxella catarrhalis
Test: Antibacterial activity against Moraxella catarrhalis ATCC 43617 by standard serial agar dilution method
Assay type: functional
Recorded MIC, one value per entry.
property: MIC (µg/mL)

| smiles.code | tested.on | property | result.unit | observed.measurement |
| --- | --- | --- | --- | --- |
| C[C@H](O/N=C(\C(=O)N[C@@H]1C(=O)N2C(C(=O)[O-])=C(C[n+]3cccc4c3ccn4CC(=O)O)CS[C@H]12)c1nc(N)sc1Cl)C(=O)O | Moraxella catarrhalis | MIC | µg/mL | 0.032 |
| C[C@H](O/N=C(\C(=O)N[C@@H]1C(=O)N2C(C(=O)[O-])=C(C[n+]3ccc(NC4CNC4)cc3)CS[C@H]12)c1nc(N)sc1Cl)C(=O)O | Moraxella catarrhalis | MIC | µg/mL | 0.016 |
| CNCCn1c(N)nc2c[n+](CC3=C(C(=O)[O-])N4C(=O)[C@@H](NC(=O)/C(=N\O[C@@H](C)C(=O)O)c5nc(N)sc5Cl)[C@H]4SC3)ccc21 | Moraxella catarrhalis | MIC | µg/mL | 0.032 |
| C[C@H](O/N=C(\C(=O)N[C@@H]1C(=O)N2C(C(=O)[O-])=C(C[n+]3cccc4c3nc(N)n4CCNCCO)CS[C@H]12)c1nc(N)sc1Cl)C(=O)O | Moraxella catarrhalis | MIC | µg/mL | 0.016 |
| C[C@H](O/N=C(\C(=O)N[C@@H]1C(=O)N2C(C(=O)[O-])=C(C[n+]3cccc4c3ccn4C)CS[C@H]12)c1nc(N)sc1Cl)C(=O)O | Moraxella catarrhalis | MIC | µg/mL | 0.016 |
| C[C@H](O/N=C(\C(=O)N[C@@H]1C(=O)N2C(C(=O)[O-])=C(C[n+]3cccc4c3ccn4CCOC(N)=O)CS[C@H]12)c1nc(N)sc1Cl)C(=O)O | Moraxella catarrhalis | MIC | µg/mL | 0.032 |
| COC(=O)NCCn1ccc2c1ccc[n+]2CC1=C(C(=O)[O-])N2C(=O)[C@@H](NC(=O)/C(=N\O[C@@H](C)C(=O)O)c3nc(N)sc3Cl)[C@H]2SC1 | Moraxella catarrhalis | MIC | µg/mL | 0.032 |
| C[C@H](O/N=C(\C(=O)N[C@@H]1C(=O)N2C(C(=O)[O-])=C(C[n+]3cccc4c3nc(N)n4[C@H]3CCNC3)CS[C@H]12)c1nc(N)sc1Cl)C(=O)O | Moraxella catarrhalis | MIC | µg/mL | 0.016 |
| CO/N=C(\C(=O)N[C@@H]1C(=O)N2C(C(=O)[O-])=C(C[N+]3(C)CCCC3)CS[C@H]12)c1csc(N)n1 | Moraxella catarrhalis | MIC | µg/mL | 0.5 |
| CNCCn1nnc2c1ccc[n+]2CC1=C(C(=O)[O-])N2C(=O)[C@@H](NC(=O)/C(=N\O[C@@H](C)C(=O)O)c3nc(N)sc3Cl)[C@H]2SC1 | Moraxella catarrhalis | MIC | µg/mL | 0.032 |
| C[C@H](O/N=C(\C(=O)N[C@@H]1C(=O)N2C(C(=O)[O-])=C(C[n+]3cccc4c3ccn4CCNS(N)(=O)=O)CS[C@H]12)c1nc(N)sc1Cl)C(=O)O | Moraxella catarrhalis | MIC | µg/mL | 0.016 |
| CNCCCc1cc[n+](CC2=C(C(=O)[O-])N3C(=O)[C@@H](NC(=O)/C(=N\O[C@@H](C)C(=O)O)c4nc(N)sc4Cl)[C@H]3SC2)cc1 | Moraxella catarrhalis | MIC | µg/mL | 0.032 |
